# Test system: HT29 (colon)
# Test method notes: Radiometric growth inhibition of tumor cells, HT29
# Assay type: cell-based, human
# Parameters: concentration or dose not given beside the values
# Condition details: HT29; continuous exposure
# Description: CELL LINES: Eight different established human cell lines CALU (lung), COLO320 (colon), H578St (breast), HT-29 (colon), MCF-7 (breast), OM-1 (colon), SKLU (lung) and SKMES(lung), and two control cell lines (bone marrow and/or fibroblast cells) were utilized. All cell lines were obtained from the Tumor Cloning Laboratory, Institute for Drug Development, Cancer Therapy and Research Center, San Antonio, Tex. […]
Quantity kind: % SURVIVAL TUMOR (%)
Give a bare numeral; the unit % is implied.

Compound	Quantity kind	Numeric result
O=C(OC[C@@H]1O[C@@H](n2ccc(=S)[nH]c2=O)[C@@H](OC(=O)c2ccccc2)[C@H]1OC(=O)c1ccccc1)c1ccccc1	% SURVIVAL TUMOR	75
O=c1[nH]c(=O)n([C@@H]2C[C@@H](O)[C@H](CO)O2)cc1F	% SURVIVAL TUMOR	42.5
O=c1[nH]c(=O)n([C@H]2O[C@@H](CO)[C@H](O)[C@@H]2O)cc1F	% SURVIVAL TUMOR	64.7
Nc1nc(O)c2ncn([C@H]3O[C@@H](CO)[C@H](O)[C@@H]3O)c2n1	% SURVIVAL TUMOR	80.9

Determine from records and report % SURVIVAL TUMOR for O=c1[nH]cc(F)c(=O)[nH]1 [Example 5-FU, 5-fluorouracil, reference compound]
1.2
